Where do these numbers come from? They come from PubChem BioAssay AID1117319.

Target: Virion infectivity factor (Human immunodeficiency virus type 1 group M subtype B (isolate BH10)) + Virion infectivity factor (Human immunodeficiency virus type 1 group M subtype B (isolate BRU/LAI)) + Virion infectivity factor (Human immunodeficiency virus type 1 group M subtype B (isolate PCV12)) + Virion infectivity factor (Human immunodeficiency virus type 1 group M subtype B (isolate HXB2)) + DNA dC->dU-editing enzyme APOBEC-3G (Homo sapiens) (UniProt P69720+P69721+P69722+P69723+Q9HC16)
Assay: inhibitors of Vif binding to APOBEC3G peptide, primary screen, biochemical, TR-FRET, GST-Vif 1-94, biotin-A3G peptide, dose response retest (AID 1117319);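 note: Vif residues 1-94 fused to GST binding biotinylated APOBEC3G peptide 110-148; 0% = full assay without inhibitor and 100% = GST in place of GST-Vif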
Details: hits give high values
The whole screen tested about 260,000 compounds, of which about 1,500 (0.58%) were called active. About 5% were inconclusive and are not listed. These entries were drawn from the full list. Measured potencies and affinities stand elsewhere.
Measured inhibition, listed per entry.
State just the number; it will be interpreted in %.

Cc1cccc(Nc2c([N+](=O)[O-])ccc3nonc23)c1C = -5.88
C[C@H](O)[C@@H]1C(=O)N2CCc3ccc(N4CCOCC4)cc3[C@@H]2C[C@@H]1N(C)S(=O)(=O)c1ccccc1 = -8.52
CCOC(=O)c1ccc(NS(=O)(=O)c2ccc3c(c2)oc(=O)n3C)cc1 = 69.3
CCOC(=O)c1ccc(NS(=O)(=O)c2ccc3[nH]c(=O)[nH]c3c2)cc1 = 5
CC(=O)Nc1ccc(OCC(O)Cn2cccn2)cc1 (stereo not given) = -6.52

*Q* Please give the measured inhibition for this compound: O=C1N/C(=C/c2cccn2-c2ccc(F)cc2)C(=O)N1Cc1ccccc1
*A* 6.05

*Q* // query inhibition value for entry Cc1ccc(/C=C2/NC(=O)N(Cc3ccccc3)C2=O)s1
*A* 3.49

*Q* Requested field: inhibition. Item: CC1=CC2=NC(=O)/C(=C\c3cccn3CCOc3cccc(C)c3)C(=N)N2O1
*A* -1.97

*Q* Form field: reported inhibition of COc1ccccc1C(O)(c1ccccc1)C(CN1CCOCC1)c1ccccc1 (stereo not given)
*A* 3.77

*Q* What inhibition value was documented for this compound, Cn1c(=O)n(C)c2cc(/C=C3/NC(=O)N(Cc4ccccc4)C3=O)ccc21 ?
*A* -1.59
